# tgt: humanized development candidate monoclonal antibody IgG4 (hIgG4)
# experimental_protocol: Gyrolab, mAb as capture, hIgG4 200 ng/ml
Listed below: Av. Resp. values for each entry.

>>> obs_value("rabbit anti-human IgG monoclonal antibody clone 16F5 (antibody, V domains shown) VH: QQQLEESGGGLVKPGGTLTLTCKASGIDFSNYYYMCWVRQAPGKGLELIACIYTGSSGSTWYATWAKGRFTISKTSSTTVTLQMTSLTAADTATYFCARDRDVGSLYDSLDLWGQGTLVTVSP VL: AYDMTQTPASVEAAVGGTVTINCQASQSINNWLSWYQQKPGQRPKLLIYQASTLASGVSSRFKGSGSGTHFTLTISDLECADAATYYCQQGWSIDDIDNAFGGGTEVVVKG")
197

Query binder follows.
For record rabbit anti-human IgG monoclonal antibody clone 2C5 (antibody, V domains shown) VH: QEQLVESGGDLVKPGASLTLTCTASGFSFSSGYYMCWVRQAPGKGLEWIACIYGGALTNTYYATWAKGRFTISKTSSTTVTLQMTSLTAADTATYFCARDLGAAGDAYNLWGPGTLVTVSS VL: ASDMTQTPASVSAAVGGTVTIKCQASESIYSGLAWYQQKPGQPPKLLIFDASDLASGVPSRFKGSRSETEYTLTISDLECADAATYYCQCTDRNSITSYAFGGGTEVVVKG the listed Av. Resp. is 87.7
